Data provenance: ChEMBL document CHEMBL1147150

Biological target: Histone deacetylase 8 (Homo sapiens, UniProt Q9BY41)
Sequence (Q9BY41 whole entry): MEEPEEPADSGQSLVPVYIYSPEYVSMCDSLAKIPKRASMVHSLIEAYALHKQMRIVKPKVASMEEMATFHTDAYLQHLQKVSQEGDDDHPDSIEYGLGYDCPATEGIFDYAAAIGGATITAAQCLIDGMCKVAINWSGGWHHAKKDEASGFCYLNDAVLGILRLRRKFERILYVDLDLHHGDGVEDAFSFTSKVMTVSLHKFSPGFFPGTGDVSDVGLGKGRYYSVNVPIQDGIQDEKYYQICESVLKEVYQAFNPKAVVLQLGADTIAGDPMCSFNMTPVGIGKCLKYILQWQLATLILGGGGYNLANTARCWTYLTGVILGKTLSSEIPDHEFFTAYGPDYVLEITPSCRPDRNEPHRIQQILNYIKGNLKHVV
pIC50: −log10 of the molar value.
assay_readout: pIC50

>  <input_smiles>
COC(=O)[C@@H]1Cc2cccc(c2)C[C@H](NC(C)=O)C(=O)N[C@@H](CCCCCC(=O)NO)C(=O)N1

>  <assay_readout>
pIC50

>  <measurement>
6.64

$$$$
